I'd be grateful if you could share measured normalized growth for these entries.
# protocol: chemical genetic growth profiling, strain panel (AID 1159580);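 also: tested at 20 µM; growth read once vehicle control cultures reached saturation at 30 °C; 1 = growth at the plate median or of vehicle wells; lower values mean less growth of the strain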
# measurement-context: S. cerevisiae deletion strains, growth OD, strain wtn01, hits give low values
Screen size: about 5,500 compounds; about 2,000 (36%) were called active. Another 18% or so got no clear call; they are omitted. The list shows a part of the results.
Answer as a number with no unit attached.

-- ask Give its normalized growth value. Item: CC(C)/C(O)=C1/C(=O)O[C@@H](c2ccoc2)[C@]2(C)C(O)[C@@H](O)[C@@]34OC5(C)OC67CC(C)(C(O)[C@]6(O)[C@@H](O)[C@]3(O5)C12)[C@H](CC(=O)O)[C@]74C (stereo partly specified)
-- reply 1

-- ask Give its normalized growth value. Item: "NCCCCCC(=O)O"
-- reply 0.997

-- ask Give its normalized growth value. Item: "Cc1cc(CC(=O)O)n(C)c1C(=O)c1ccc(Cl)cc1"
-- reply 1.01

-- ask Give its normalized growth value. Item: CC(=O)O[C@@H]1CC2C(C)(C)C(=O)C3OC3[C@]2(C)C2CC[C@@]3(C)[C@H](c4ccoc4)OC(=O)C4OC43[C@@]21C (stereo partly specified)
-- reply 1

-- ask Give its normalized growth value. Item: "c1ccc2c(CC3=NCCN3)cccc2c1"
-- reply 1.02

-- ask Give its normalized growth value. Item: "COc1c(C)c2c(c(O)c1C/C=C(\C)CCC(=O)O)C(=O)OC2"
-- reply 0.684

-- ask Give its normalized growth value. Item: "NCCCNCCSP(=O)(O)O"
-- reply 0.99

-- ask Give its normalized growth value. Item: "FC(F)(F)c1cccc(N2CCNCC2)c1"
-- reply 0.966

-- ask Give its normalized growth value. Item: COC(=O)[C@@H]1OC(=O)C2OC23[C@@]1(C)CCC1[C@]2(C)C(C[C@@H](O)[C@]13C)C(C)(C)[C@H](OC(C)=O)C[C@@H]2OC(C)=O (stereo partly specified)
-- reply 1

-- ask Give its normalized growth value. Item: C[C@]12CCC3C(CC[C@H]4C[C@H](O)CC[C@]34C)C1CC[C@@H]2O (stereo partly specified)
-- reply 0.961

-- ask Give its normalized growth value. Item: "O=c1oc2ccccc2cc1O"
-- reply 0.984

-- ask Give its normalized growth value. Item: "O=NN(CCCl)C(=O)NCCCl"
-- reply 0.853

-- ask Give its normalized growth value. Item: CC1[C@H](C)OC(=O)CC(O)CC(O)CC(O)CCC(O)C(O)C[C@]2(O)CC(O)C(C(=O)O)C(CC(OC3O[C@H](C)[C@@H](O)[C@H](N)[C@@H]3O)/C=C/C=C/C=C/C=C/CC/C=C/C=C/[C@H](C)[C@H]1O)O2 (stereo partly specified)
-- reply 0.0877

-- ask Give its normalized growth value. Item: CNc1ccc(C(=O)CC(O)CCC(C)C2OC(=O)CC(O)CC(=O)CC(O)CC(O)CC(O)CC(O)CC3(O)CC(O)C(C(=O)OC)C(CC(OC4OC(C)C(O)C(N)C4O)/C=C/C=C/C=C/C=C/C=C/C=C/C=C/C2C)O3)cc1 (stereo unspecified)
-- reply 0.061

-- ask Give its normalized growth value. Item: "NCCCC(=O)O"
-- reply 1.03

-- ask Give its normalized growth value. Item: "NCCCCNCCCN"
-- reply 0.993

-- ask Give its normalized growth value. Item: "NC(N)=NCCCCN=C(N)N"
-- reply 0.983

-- ask Give its normalized growth value. Item: CCC(C)C(=O)c1c(O)c(C)c2oc3c(C)c(O)c(C(=O)C(C)CC)c(O)c3c2c1O (stereo unspecified)
-- reply 0.969

-- ask Give its normalized growth value. Item: "CC(C)c1nc(N(C)S(C)(=O)=O)nc(-c2ccc(F)cc2)c1/C=C/[C@@H](O)C[C@@H](O)CC(=O)O"
-- reply 1

-- ask Give its normalized growth value. Item: CCCCCCCCCCCCCC(=O)OC1C(C)C2(O)C(C=C(CO)CC3(O)C(=O)C(C)=CC32)C2C(C)(C)C12OC(C)=O (stereo unspecified)
-- reply 1.01

-- ask Give its normalized growth value. Item: CC1(C)C(=O)[C@@H]2O[C@@H]2[C@@]2(C)C1C[C@@H](O)[C@]1(C)C2CC[C@@]2(C)[C@H](c3ccoc3)OC(=O)C3OC321 (stereo partly specified)
-- reply 0.999

-- ask Give its normalized growth value. Item: COC[C@]12CN(C=O)C3[C@@H]4[C@H](OC)C1[C@]3(C1CC3(O)C(OC)C(O)C4(OC(C)=O)C1C3OC(=O)c1ccccc1)[C@@H](OC)C[C@H]2O (stereo partly specified)
-- reply 0.99

-- ask Give its normalized growth value. Item: COC(=O)[C@@H]1OC(=O)C2OC23[C@@]1(C)CCC1[C@@]2(C)CCC(=O)C(C)(C)C2C[C@@H](OC(C)=O)[C@]13C (stereo partly specified)
-- reply 1.02

-- ask Give its normalized growth value. Item: CC(=O)O[C@H]1C[C@@H](OC(C)=O)C(C)(C)C2C[C@@H](O)[C@]3(C)C(CC[C@@]4(C)[C@H](c5ccoc5)OC(=O)[C@H]5O[C@]543)[C@]21C (stereo partly specified)
-- reply 0.972

-- ask Give its normalized growth value. Item: COC(=O)/C(C)=C\CC12OC(C)(C)C3CC(C=C4C(=O)c5c(OC)c6c(c(CC=C(C)C)c5OC431)OC(C)(CCC=C(C)C)C=C6)C2=O (stereo unspecified)
-- reply 0.984

-- ask Give its normalized growth value. Item: "CN(C)C(=O)Oc1ccc[n+](C)c1"
-- reply 1.01

---

I'd be grateful if you could share measured normalized growth for these entries.
# protocol: chemical genetic growth profiling, strain panel (AID 1159580);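 also: tested at 20 µM; growth read once vehicle control cultures reached saturation at 30 °C; 1 = growth at the plate median or of vehicle wells; lower values mean less growth of the strain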
# measurement-context: S. cerevisiae deletion strains, growth OD, locus YOR136W, strain idh2, hits give low values
About 2,000 (36%) of roughly 5,500 compounds were called active. Another 18% or so got no clear call; they are omitted. The list shows a part of the results.
Answer as a number with no unit attached.

-- ask Give its normalized growth value. Item: "NCCCCC(=O)O"
-- reply 0.982

-- ask Give its normalized growth value. Item: Cc1cccc(C)c1NC(=O)C1CCCCN1C (stereo not given)
-- reply 1.02

-- ask Give its normalized growth value. Item: "Cc1oncc1C(=O)Nc1ccc(C(F)(F)F)cc1"
-- reply 0.982

-- ask Give its normalized growth value. Item: "CC(=O)O[C@]1(C)CC[C@@]23CC1C(C)(C)[C@@H]2CC[C@H]3C"
-- reply 1.02

-- ask Give its normalized growth value. Item: "Cc1cc(/C=C/c2ccc3cc(N(C)C)ccc3[n+]2C)c(C)n1-c1ccccc1"
-- reply 0.997

---

# protocol: chemical genetic growth profiling, strain panel (AID 1159580);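 also: tested at 20 µM; growth read once vehicle control cultures reached saturation at 30 °C; 1 = growth at the plate median or of vehicle wells; lower values mean less growth of the strain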
# measurement-context: S. cerevisiae deletion strains, growth OD, locus YNL248C, strain rpa49, hits give low values
Among all 5,500 compounds or so, about 2,000 (36%) were called active. Not shown: some 18% with an inconclusive outcome. Some of the results follow.
reported-endpoint: normalized growth
Answer as a number with no unit attached.

-- ask Give its normalized growth value. Item: CC(=O)O[C@H]1C[C@@H](OC(C)=O)C(C)(C)C2C[C@@H](OC(C)=O)[C@]3(C)C(CC[C@@]4(C)[C@H](c5ccoc5)OC(=O)[C@H]5O[C@]543)[C@]21C (some centres not stated)
-- reply 0.971

-- ask Give its normalized growth value. Item: Clc1ccc(C(Cn2ccnc2)OCc2ccsc2Cl)c(Cl)c1 (configuration not stated)
-- reply 0.0715

-- ask Give its normalized growth value. Item: CC(=O)O[C@@H]1CC2C(C)(C)C(=O)C3OC3[C@]2(C)C2CC[C@@]3(C)[C@H](c4ccoc4)OC(=O)C4OC43[C@@]21C (some centres not stated)
-- reply 0.973

-- ask Give its normalized growth value. Item: COc1ccc2nc(S(=O)Cc3ncc(C)c(OC)c3C)[nH]c2c1 (configuration not stated)
-- reply 1.02

-- ask Give its normalized growth value. Item: CC(=O)C1CC[C@H]2C3CC[C@H]4C[C@H](O)CC[C@]4(C)C3CC[C@]12C (some centres not stated)
-- reply 0.939

-- ask Give its normalized growth value. Item: "COc1ccc2oc3ccccc3c(=O)c2c1"
-- reply 0.397

-- ask Give its normalized growth value. Item: CC(=O)O[C@@H]1CC2C(C)(C)[C@@H](O)CC[C@]2(C)C2CC[C@@]3(C)[C@H](c4ccoc4)OC(=O)[C@H]4O[C@]43[C@@]21C (some centres not stated)
-- reply 0.995

-- ask Give its normalized growth value. Item: "CN(C)C(=O)Oc1ccc[n+](C)c1"
-- reply 0.996

-- ask Give its normalized growth value. Item: "CC(=O)OC/C=C(\C)CC/C=C(\C)CC/C=C(\C)CC/C=C(\C)CC/C=C(\C)CC/C=C(\C)CC/C=C(\C)CC/C=C(\C)CCC=C(C)C"
-- reply 0.964

-- ask Give its normalized growth value. Item: CC1(C)C(=O)[C@@H]2O[C@@H]2[C@@]2(C)C1C[C@@H](O)[C@]1(C)C2CC[C@@]2(C)[C@H](c3ccoc3)OC(=O)C3OC321 (some centres not stated)
-- reply 0.991

-- ask Give its normalized growth value. Item: COC(=O)/C(C)=C\CC12OC(C)(C)C3CC(C=C4C(=O)c5c(OC)c6c(c(CC=C(C)C)c5OC431)OC(C)(CCC=C(C)C)C=C6)C2=O (configuration not stated)
-- reply 1.03

-- ask Give its normalized growth value. Item: CC(=O)Oc1c2c(c(CC=C(C)C)c3c1C(=O)C1=C[C@@H]4CC5C(C)(C)OC(C/C=C(\C)C(=O)O)(C4=O)[C@@]15O3)OC(C)(CCC=C(C)C)C=C2 (some centres not stated)
-- reply 0.983

-- ask Give its normalized growth value. Item: "NCCCCC(=O)O"
-- reply 1.01

-- ask Give its normalized growth value. Item: COc1ccc2c(c1)OCC(Cc1ccc(OC)c(O)c1)C2=O (configuration not stated)
-- reply 0.919

-- ask Give its normalized growth value. Item: "CN(C/C=C/C#CC(C)(C)C)Cc1cccc2ccccc12"
-- reply 0.378

-- ask Give its normalized growth value. Item: O=c1cccc2n1CC1CC2CN2CCCC[C@@H]12 (some centres not stated)
-- reply 1.01

-- ask Give its normalized growth value. Item: CC1(C)N([O-])[N+](=O)C1(C)Br (configuration not stated)
-- reply 0.992

-- ask Give its normalized growth value. Item: CN[C@@H]1C(OC2[C@H](O[C@H]3[C@H](O)[C@@H](O)[C@H](N=C(N)N)[C@@H](O)[C@@H]3N=C(N)N)OC(C)[C@]2(O)CO)OC(CO)C(O)C1O (some centres not stated)
-- reply 1.02

-- ask Give its normalized growth value. Item: CC(=O)Oc1c2c(c3c(c1CC=C(C)C)O[C@]14C(=C[C@@H]5CC1C(C)(C)OC4(C/C=C(\C)C(=O)O)C5=O)C3=O)OC(C)(CCC=C(C)C)C=C2 (some centres not stated)
-- reply 0.973

-- ask Give its normalized growth value. Item: COc1ccc2c(c1)OCC(Cc1ccc(O)c(OC)c1)C2=O (configuration not stated)
-- reply 0.971

-- ask Give its normalized growth value. Item: CC12CCCCC1(Br)[N+](=O)N2[O-] (configuration not stated)
-- reply 0.954

-- ask Give its normalized growth value. Item: "Cc1nnc(NS(=O)(=O)c2ccc(N)cc2)s1"
-- reply 1.01

-- ask Give its normalized growth value. Item: Clc1ccc(COC(Cn2ccnc2)c2ccc(Cl)cc2Cl)cc1 (configuration not stated)
-- reply 0.0786

-- ask Give its normalized growth value. Item: "COc1cc(C)c2c(=O)cc(-c3ccccc3)oc2c1"
-- reply 0.912

-- ask Give its normalized growth value. Item: COC1C=CC23c4cc5c(cc4CN(CC2O)[C@@H]3C1)OCO5 (some centres not stated)
-- reply 0.949

-- ask Give its normalized growth value. Item: Clc1ccc(CSC(Cn2ccnc2)c2ccc(Cl)cc2Cl)cc1 (configuration not stated)
-- reply 0.0789

-- ask Give its normalized growth value. Item: "COc1ccc(-c2oc3cc(OC)c(OC)c(OC)c3c(=O)c2OC)cc1OC"
-- reply 0.967
